Reported Ki values for a set of molecules
# assayed system: hCRTH2 (Homo sapiens, UniProt Q9Y5Y4)
# Sequence (Q9Y5Y4 whole entry): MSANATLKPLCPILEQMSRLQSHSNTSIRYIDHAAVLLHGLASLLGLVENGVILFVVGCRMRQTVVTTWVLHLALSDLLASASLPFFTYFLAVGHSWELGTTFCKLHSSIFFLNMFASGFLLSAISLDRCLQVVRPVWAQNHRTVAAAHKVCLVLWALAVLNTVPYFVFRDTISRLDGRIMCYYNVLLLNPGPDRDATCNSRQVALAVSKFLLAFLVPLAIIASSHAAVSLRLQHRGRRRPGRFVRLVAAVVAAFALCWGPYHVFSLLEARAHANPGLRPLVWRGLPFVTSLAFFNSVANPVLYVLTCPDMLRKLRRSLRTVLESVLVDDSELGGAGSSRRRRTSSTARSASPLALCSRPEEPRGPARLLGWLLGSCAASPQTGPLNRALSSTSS
# Parameters: expressed in transfected cells; host or cells: HEK (human embryonic kidney) cells expressing hCRTH2
# study conditions: Radioligand Binding Assay B; Table B, rated A-D

molecule: O=C(O)CCC(=O)N(C1CC1)[C@@H]1c2ccccc2N(C(=O)OCc2ccccc2)[C@@H]2CC[C@@H]21 (racemic)
Ki: 20.1 to 200 nM
--
molecule: O=C(O)/C=C/C(=O)N(CC1CC1)C1c2ccccc2N(C(=O)c2ccccc2)C2CCCC12 (racemic) [17H]
Ki: 201 to 7500 nM
--
molecule: O=C(O)CCC(=O)N(C1CC1)C1c2ccccc2N(C(=O)C2CC2)C2CCCC21 (racemic) [14G]
Ki: 20.1 to 200 nM
--
molecule: Cn1c(C(=O)N2c3ccccc3C(N(C(=O)CCC(=O)O)C3CC3)C3CCCC32)cc2ccccc21 (racemic) [14D]
Ki: 5.1 to 20 nM
--
molecule: CN(C(=O)CCCC(=O)O)C1c2ccccc2N(C(=O)c2ccc(OC(F)(F)F)cc2)C2CCCC12 (racemic) [17o]
Ki: 201 to 7500 nM
--
molecule: CN(C(=O)CCCC(=O)O)C1c2ccccc2N(C(=O)c2ccccc2)C2CCCC12 (racemic) [17N]
Ki: 201 to 7500 nM
--
molecule: CCN(c1nc(C(=O)O)cs1)[C@@H]1c2ccccc2N(C(=O)OCc2ccccc2)[C@@H]2CCC[C@H]12 (racemic)
Ki: 20.1 to 200 nM
--
molecule: O=C(O)CCC(=O)N(C1CC1)[C@@H]1c2ccccc2N(C(=O)c2ccccc2)[C@@H]2CCC[C@@H]21 (racemic)
Ki: 5.1 to 20 nM
--
molecule: CC(C)(C)COC(=O)N1c2ccccc2C(N(C(=O)CCC(=O)O)C2CC2)C2CCCC21 (racemic) [21H]
Ki: 201 to 7500 nM
--
molecule: O=C(O)CCC(=O)N(c1ccccc1)C1c2ccccc2N(C(=O)c2cccnc2)C2CCCC21 (racemic) [12D]
Ki: 5.1 to 20 nM
